assay: NOD1 signaling inhibitors, primary screen, cell-based, luminescence, uHTS (AID 1578);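 further: HEK-293T reporter cells stimulated with the NOD1 agonist gamma-tri-DAP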
assay-conditions: NOD1-driven NF-kB luciferase reporter cells, at 4 µM
Out of some 290,000 compounds screened, about 3,000 (1%) were called active. No stated cut-off is given here; in the data, active means inhibition mostly above about 36% (no sharp cut-off); inactive means mostly below about 34%. What follows is part of a selection rich in actives, with near analogues and random picks from the rest.
Form entry, call: pick from 1 for active, -1 for inactive

Request: I'd appreciate the recorded outcome for `Nc1c(-c2ccccc2)c(CSc2nc3ccccc3[nH]2)nn1-c1ccc(Cl)cc1` from this test.
Result: -1

Request: And the next one, `COc1ccc(CNC(=O)CCSCc2ccccc2C)cc1` ?
Result: 1

Request: And the next one, `Nc1c(-c2ccccc2)c(CSc2nc3ccccc3[nH]2)nn1-c1cccc(Cl)c1` ?
Result: 1

Request: And the next one, `COc1ccc(Cl)cc1C(=O)Nc1cccc2ncccc12` ?
Result: -1

Request: And the next one, O=P(c1ccccc1)(c1ccccc1)C1CCCO1 (configuration not stated) ?
Result: -1

Request: And the next one, `O=c1oc2ccccc2cc1-c1cn2cccnc2n1` ?
Result: -1

Request: And the next one, `CN(c1ccccc1)c1ccc(/C=C/[N+](=O)[O-])cc1` ?
Result: 1

Request: And the next one, `CN(C)c1nc2ncn(Cc3ccccc3)c2c(=O)[nH]1` ?
Result: -1

Request: And the next one, `O=c1oc2ccccc2cc1-c1cn2ccccc2n1` ?
Result: 1

Request: And the next one, `CCCc1nnc(NC(=O)C23CC4CC(CC(C4)C2)C3)s1` ?
Result: -1

Request: And the next one, `Nc1ccc(-c2cc3ccccc3oc2=O)cc1` ?
Result: 1

Request: And the next one, `O=C(CCCN1C(=O)/C(=C/c2ccccc2Cl)SC1=S)N1CCCC1` ?
Result: -1

Request: And the next one, `Cc1ccc(C(=O)Nc2ccc(Br)c(C(F)(F)F)c2)cc1` ?
Result: -1

Request: And the next one, `O=C(O)CSc1cc(NS(=O)(=O)c2ccc(Br)cc2)c2ccccc2c1O` ?
Result: -1

Request: And the next one, `O=C(c1cnn(C(=O)c2cccc(S(=O)(=O)N3CCOCC3)c2)c1)c1ccccc1O` ?
Result: -1

Request: And the next one, `CN(C)c1ccc(-n2cccc2/C=C/[N+](=O)[O-])cc1` ?
Result: -1

Request: And the next one, `Cc1ccc(S(=O)(=O)N(C)c2cc(S(=O)(=O)N3CCOCC3)c(C)cc2C)cc1` ?
Result: -1

Request: And the next one, `COc1cc(NC(=O)CSc2nnc(-c3cc(C)on3)o2)cc(OC)c1` ?
Result: -1

Request: And the next one, Cc1ccc2c(c1)c(=O)c1c3n2CCN(C(=O)CCl)C3CC1 (configuration not stated) ?
Result: 1

Request: And the next one, `O=C(O)c1cccc(Oc2ccc([N+](=O)[O-])cc2)c1` ?
Result: -1

Request: And the next one, `O=c1oc2ccccc2cc1-c1ccccc1` ?
Result: -1

Request: And the next one, `COc1ccccc1-n1nnnc1S(=O)(=O)Cc1ccc(Cl)cc1` ?
Result: -1

Request: And the next one, `COc1ccc(S(=O)(=O)Nc2ccc(O)c(Sc3ncn[nH]3)c2)cc1` ?
Result: -1

Request: And the next one, `O=S(=O)(Nc1cc(Sc2cccc3cccnc23)c(O)c2ccccc12)c1ccccc1` ?
Result: 1

Request: And the next one, `Cc1ccc(S(=O)(=O)/N=C(\CCl)N2CCOCC2)cc1` ?
Result: 1

Request: And the next one, `O=C(NC1=NCCS1)C12CC3CC(CC(C3)C1)C2` ?
Result: -1

Request: And the next one, `O=c1oc2ccccc2cc1-c1ccc(O)cc1` ?
Result: -1

* * *

assay: NOD1 signaling inhibitors, primary screen, cell-based, luminescence, uHTS (AID 1578);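 further: HEK-293T reporter cells stimulated with the NOD1 agonist gamma-tri-DAP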
assay-conditions: NOD1-driven NF-kB luciferase reporter cells, at 4 µM, active compounds read high
Screen size: about 290,000 compounds; about 3,000 (1%) were called active. This excerpt belongs to a sample that is enriched for actives.
measurement-type: inhibition (%)
Enter your answer as a number in %; do not include the unit.

Request: Need inhibition, item `Cc1cc(Oc2ccc(N)cn2)ccc1Cl`
Result: 4.5

Request: And the next one, `C/C(=N\Nc1ccc(C(=O)O)cc1)c1ccc(Br)cc1` ?
Result: 5

Request: And the next one, `COc1ccc(C(=O)CC(=O)c2ccc(OC)cc2)cc1` ?
Result: -23.3

Request: And the next one, `CCOC(=O)c1ccccc1NC(=O)c1cc2ccccc2o1` ?
Result: -31.6

Request: And the next one, `CC(C)(C)NC(=O)C1CCN(S(=O)(=O)c2cccc(C(F)(F)F)c2)CC1` ?
Result: -13.7

Request: And the next one, `O=C(Oc1c(Cl)cc(Cl)c2cccnc12)c1cccc([N+](=O)[O-])c1` ?
Result: 105

Request: And the next one, CC(NC(=O)CCCc1c[nH]c2ccccc12)c1ccc(F)cc1 (centres undefined) ?
Result: 51.3

Request: And the next one, `CCC(=O)Nc1cc2c(C)cc(=O)oc2cc1C` ?
Result: -1.6

Request: And the next one, O=S(=O)(NCC1CCCO1)c1ccc(-c2ccc(Cl)cc2)cc1 (centres undefined) ?
Result: 9.5

Request: And the next one, COc1ccc(/C=C/C(O)=C2/C(=O)NC3(C)CC2c2ccccc2O3)c(OC)c1OC (centres undefined) ?
Result: 69.9

Request: And the next one, CC(NC(=O)CCc1c[nH]c2ccccc12)c1ccccc1 (centres undefined) ?
Result: -38.3

Request: And the next one, `Cc1ccc(S(=O)(=O)Oc2ccc(/C=C(/NC(=O)c3ccccc3)C(=O)NCCCC(=O)O)cc2)cc1` ?
Result: -18.3

Request: And the next one, `CC(=O)Nc1ccc(NC(=O)c2ccc(CN3CCc4ccccc4C3)cc2)cc1` ?
Result: 21.2

Request: And the next one, `CN(Cc1ccccc1)S(=O)(=O)c1ccc(Cl)c(C(=O)NCc2ccc3c(c2)OCO3)c1` ?
Result: -8.3

Request: And the next one, COc1cccc2c1OC1(C)CC2/C(=C(\C)O)C(=O)N1 (centres undefined) ?
Result: -20.8

Request: And the next one, `CCOc1ccccc1NC(=O)c1ccc(CN2CCc3ccccc3C2)cc1` ?
Result: 25.2

Request: And the next one, `C=CCn1c(C)csc1=Nc1ccc(C(=O)O)cc1` ?
Result: -39.1

Request: And the next one, `Cc1cc2oc(=O)cc(C)c2cc1NC(=O)CCl` ?
Result: 42.5

Request: And the next one, `O=C(Oc1cccc2cccnc12)c1cccc([N+](=O)[O-])c1` ?
Result: -8.5

Request: And the next one, `Cc1nc(NC(=O)c2ccccc2)sc1C` ?
Result: -84.9

Request: And the next one, `Cc1cc(=O)c2ccc(C(F)(F)F)cc2[nH]1` ?
Result: -14.1

Request: And the next one, `COc1ccc(OC)c(NC(=O)CNC(=O)Cn2cnc3sc(C)cc3c2=O)c1` ?
Result: -3.5

Request: And the next one, `CC(C)NC(=O)CCCc1c[nH]c2ccccc12` ?
Result: -33

Request: And the next one, `CC(C)(C)c1ccc(C(=O)NC(=S)NCc2ccco2)cc1` ?
Result: -11

Request: And the next one, `O=C(COC(=O)Cc1ccc(Br)cc1)NCc1ccc(F)cc1` ?
Result: 48.2

Request: And the next one, `c1ccc(Nc2nc(-c3cccs3)cs2)nc1` ?
Result: -50.9

Request: And the next one, CC(NC(=O)Cn1ncc(Cl)c(Cl)c1=O)C12CC3CC(CC(C3)C1)C2 (centres undefined) ?
Result: 87

Request: And the next one, `COc1ccc(C(=O)C/C(=C\C(=O)c2ccc(C)cc2)c2ccccc2)cc1` ?
Result: 71.2

Request: And the next one, `Cc1cc(C)cc(Oc2ccc(N)cc2)c1` ?
Result: -28.1

Request: And the next one, `O=C(COC(=O)c1ccc(Br)cc1)NCc1ccc(F)cc1` ?
Result: -22.6

Request: And the next one, `CN1CCN(CCCNC(=O)Cn2nc(-c3ccccc3)ccc2=O)CC1` ?
Result: -20.1

Request: And the next one, `Cc1cccc(Oc2ccc(N)cc2)c1` ?
Result: -25.9

Request: And the next one, `CCOC(=O)N1CCN(c2cc(=O)n(Cc3ccc(F)cc3)c(=O)[nH]2)CC1` ?
Result: -37.3

Request: And the next one, `CC[n+]1c(/C=C/c2ccc(OC)c(OC)c2)ccc2ccccc21` ?
Result: -81.5

* * *

assay: NOD1 signaling inhibitors, primary screen, cell-based, luminescence, uHTS (AID 1578);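 further: HEK-293T reporter cells stimulated with the NOD1 agonist gamma-tri-DAP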
assay-conditions: NOD1-driven NF-kB luciferase reporter cells, at 4 µM
Screen size: about 290,000 compounds; about 3,000 (1%) were called active. Rule as the data show it: active = inhibition mostly above about 36% (no sharp cut-off); inactive = mostly below about 34%. The sample holds actives, similar compounds and a random draw of the others, so the mix is not that of the screen.
Form entry, call: pick from active, inactive

Request: I'd appreciate the recorded outcome for `COc1ccc2cnn(CCOc3ccccc3)c(=O)c2c1OC` from this test.
Result: inactive

Request: And the next one, `COCCn1c(C)cc(C2=NNC(=NC3CC3)SC2)c1C` ?
Result: active

Request: And the next one, O=C(Nc1ccccc1)C1COc2ccccc2O1 (stereo unspecified) ?
Result: inactive

Request: And the next one, `Cc1c(CCC(=O)O)c(=O)oc2c(C)c3occ(-c4ccc(Br)cc4)c3cc12` ?
Result: inactive

Request: And the next one, `O=C(O)c1ccc(/C=C2\CCCc3c2nc2ccccc2c3C(=O)O)cc1` ?
Result: inactive

Request: And the next one, Cc1cc(C2=NNC(=NCCc3ccccc3)SC2)c(C)n1CC1CCCO1 (stereo unspecified) ?
Result: inactive

Cited source for all entries: PubChem BioAssay AID1578
